biological target: human GLP-1 receptor (human, UniProt P43220 24-463); experiment: cell-based or functional assay
Numbered stars: 1 amine (or outer) side, 2 acyl side, 3 side chain; on linkers, the order of the positions; unused ones are H or OH. Square brackets hold non-standard residues; d marks the D form. Side chains are listed from the residue outwards. * marks the point of attachment. C18 diacid = O=C(O)CCCCCCCCCCCCCCCCC(=O)*; γGlu = O=C(O)[C@H](CCC(=O)[*:2])N[*:1]; AEEA = NCCOCCOCC(=O)O; Aib = CC(C)(N)C(=O)O
assayMetric: hGLP-1R Potency, no HSA, EC50 [pM] (pM)
Report only the number, with the unit pM understood.

// recorded hGLP-1R Potency, no HSA, EC50 [pM] for Compound 68 (peptide) peptide: Y[Aib]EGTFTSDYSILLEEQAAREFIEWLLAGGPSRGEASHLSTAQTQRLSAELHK([AEEA-AEEA-γGlu-C18 diacid])LATLPRTETGSGSP-NH2 : 12.1

// recorded hGLP-1R Potency, no HSA, EC50 [pM] for Compound 78 (peptide) peptide: H[Aib]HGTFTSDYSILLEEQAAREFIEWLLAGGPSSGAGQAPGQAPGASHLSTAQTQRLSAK([AEEA-AEEA-γGlu-C18 diacid])LHRLATLPRTETGSGSP-NH2 : 4.03
